Source listed as patent US20150086555A1.

Listed next: entries and their corresponding Trimeric HA Binding: RLU.
Molecular target: recombinant homotrimeric HA A/northern shoveler/California/HKWF115/07 H6N4 (Influenza A virus A/northern shoveler/California/HKWF115/2007(H6N1))
Assay: protein microarray, purified IgG, trimeric HA
Conditions: remark: other sources report otherwise
Give your result in RLU as a bare value.

binder	quantitative.result
TCN-528 (5087_P17) (antibody, V domains shown) VH: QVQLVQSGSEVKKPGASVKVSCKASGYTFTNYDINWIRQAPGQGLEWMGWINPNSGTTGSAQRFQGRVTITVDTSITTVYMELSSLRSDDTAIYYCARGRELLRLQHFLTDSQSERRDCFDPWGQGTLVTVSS VL: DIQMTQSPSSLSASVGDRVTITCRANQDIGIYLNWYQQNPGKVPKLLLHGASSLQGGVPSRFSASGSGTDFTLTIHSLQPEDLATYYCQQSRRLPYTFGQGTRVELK	18000
TCN-544 (5082_A19) (antibody, V domains shown) VH: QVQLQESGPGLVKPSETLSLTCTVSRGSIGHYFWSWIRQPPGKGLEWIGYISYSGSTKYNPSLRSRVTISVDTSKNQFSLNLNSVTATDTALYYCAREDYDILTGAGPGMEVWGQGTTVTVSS VL: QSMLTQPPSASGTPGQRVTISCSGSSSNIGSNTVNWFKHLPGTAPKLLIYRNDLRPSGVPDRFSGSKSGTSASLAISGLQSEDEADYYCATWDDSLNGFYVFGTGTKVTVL	82
TCN-555 (5246_L16) (antibody, V domains shown) VH: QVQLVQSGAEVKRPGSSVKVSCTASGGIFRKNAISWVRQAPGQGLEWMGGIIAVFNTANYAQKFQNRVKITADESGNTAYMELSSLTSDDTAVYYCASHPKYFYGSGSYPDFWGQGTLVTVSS VL: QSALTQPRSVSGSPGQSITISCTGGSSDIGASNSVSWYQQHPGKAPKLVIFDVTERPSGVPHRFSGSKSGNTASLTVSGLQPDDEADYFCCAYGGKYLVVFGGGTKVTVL	15600

Shifting focus to the binder that follows.
Memo: TCN-558 (5248_H10b) (antibody, V domains shown) VH: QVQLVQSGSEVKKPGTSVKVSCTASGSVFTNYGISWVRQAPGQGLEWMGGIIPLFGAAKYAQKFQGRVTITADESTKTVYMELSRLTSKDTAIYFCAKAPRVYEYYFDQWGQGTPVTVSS VL: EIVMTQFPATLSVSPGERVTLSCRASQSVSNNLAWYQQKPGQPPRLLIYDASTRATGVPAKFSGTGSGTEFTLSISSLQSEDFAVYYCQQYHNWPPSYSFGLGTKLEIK , reported Trimeric HA Binding: RLU: 12300
